Numbers sourced from PubChem BioAssay AID2775.

// reported viability per item
procedure.summary: antiviral efficacy and BSC cell toxicity – BSC cells, set 2, SV40 T antigen inhibitor project (AID 2775)
condition.notes: BSC cells, SV40 CPE inhibition and viability; BSC cell viability; at 100 µM; stronger effect = lower value
Please provide the amount together with its unit, number first.

Please report viability for the following compound: O=C(Cn1sc2ccccc2c1=O)Nc1cccc(C(F)(F)F)c1
87.5%

Determine its reported viability: O=C(Cn1sc2ccccc2c1=O)NCc1ccccc1
22.9%

Give me measured viability, please, for this compound: O=C(Cn1sc2ccccc2c1=O)Nc1ccccc1
24%

Supply reported viability belonging to this compound: O=C(Cn1sc2ccccc2c1=O)Nc1ccc(Cl)cc1
83%

Provide viability value for the following compound: O=C(Cn1sc2ccccc2c1=O)Nc1ccc(F)cc1
30.5%

For COc1cccc(-n2nnnc2C(Cl)(Cl)c2nnnn2-c2cccc(OC)c2)c1 , write its viability.
99.5%

Fill in reported viability for this entry: Cc1ccc(NC(=O)Cn2sc3ccccc3c2=O)cc1
22%

Indicate the recorded viability value for this compound: COc1cccc(NC(=O)Cn2sc3ccccc3c2=O)c1
52.5%

Specify reported viability for the compound shown: COc1ccc(NC(=O)Cn2sc3ccccc3c2=O)cc1
24.9%

Answer with the recorded viability of O=C(c1cccn1-c1ccccc1)c1cccn1-c1ccccc1 only.
110%
